Data provenance is the supplement of paper PMC7877785.

ASSAY DETAILS: self-splicing fitness, log relative to wild type (ln ratio); higher = more splicing; Tetrahymena group I intron in knt gene, E. coli kanamycin selection, DiMSum; sequences stand for … in CUCUCU…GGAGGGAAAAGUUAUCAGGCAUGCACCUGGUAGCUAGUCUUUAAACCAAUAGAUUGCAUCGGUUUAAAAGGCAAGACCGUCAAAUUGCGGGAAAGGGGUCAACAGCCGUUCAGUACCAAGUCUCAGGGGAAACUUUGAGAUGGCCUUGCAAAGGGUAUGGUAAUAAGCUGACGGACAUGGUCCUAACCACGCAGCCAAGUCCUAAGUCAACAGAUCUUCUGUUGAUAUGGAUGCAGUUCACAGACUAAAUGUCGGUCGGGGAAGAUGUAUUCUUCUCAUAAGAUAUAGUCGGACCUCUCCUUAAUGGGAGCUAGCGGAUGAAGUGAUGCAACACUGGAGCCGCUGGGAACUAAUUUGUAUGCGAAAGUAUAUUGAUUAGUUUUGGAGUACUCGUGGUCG;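 note: selection with 25 µg/mL kanamycin versus none on LB agar overnight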
CONDITION: 30 °C
ENDPOINT: self-splicing fitness (ln)
Give the figure by itself; no unit, no explanation.

Returns the measured self-splicing fitness (ln) for the input sequence. Input: CUGCAGCAAUAUUACGCAAU
-3.55

Item: GACUAGCAAUAUUACGUGGU
-3.39

Item: GUUUAGCAAUAUUACGAUAG
-3.5

Item: AUCAAGCAAUAUUACGGAGU
-2.18

Item: UUAAAGCAAUAUUACGGCGC
-0.589

Item: CAUAAGCAAUAUUACGGUGU
-3.84

Item: GCCUAGCAAUAUUACGAGGG
-3.68

Item: CUACAGCAAUAUUACGGCGC
-3.96

Item: UUGAAGCAAUAUUACGAGGU
-4.15

Item: CCGGAGCAAUAUUACGGUAU
-4.05

Item: GGGUAGCAAUAUUACGAUGG
-2.86

Item: AGGCAGCAAUAUUACGGAUU
-1.08

Item: AACAAGCAAUAUUACGUAUC
-4.08

Item: CAGUAGCAAUAUUACGCGUC
-4.24

Item: GCUGAGCAAUAUUACGGGAA
-4.56

Item: CAGAAGCAAUAUUACGCGUU
-3.09

Item: UAUAAGCAAUAUUACGUGCG
-0.452

Item: UUUUAGCAAUAUUACGCGGG
-0.691

Item: AAAUAGCAAUAUUACGAAAG
-3.48

Item: CCUAAGCAAUAUUACGUUUC
-2.52

Item: UCUAAGCAAUAUUACGGCGU
-2.01

Item: GUCCAGCAAUAUUACGGGCA
-2.25

Item: AUGCAGCAAUAUUACGGUAU
-4.16

Item: GGAGAGCAAUAUUACGACUU
-2.58

Item: GUCCAGCAAUAUUACGUUCG
-1.26

Item: UCGGAGCAAUAUUACGGGAU
-3.48

Item: GCUAAGCAAUAUUACGUGCC
-3.59

Item: CACCAGCAAUAUUACGUGGC
-3.65

Item: GGACAGCAAUAUUACGUUCU
-2.91

Item: GCCCAGCAAUAUUACGUACG
-3.98

Item: AACCAGCAAUAUUACGCACU
0.473

Item: AGUCAGCAAUAUUACGCCUG
-2.49

Item: AGGUAGCAAUAUUACGCCUC
-3.88

Item: GUCGAGCAAUAUUACGAAGG
-3.61
